# TARGET_OR_TEST_SYSTEM: Gonadotropin-releasing hormone receptor (Rattus norvegicus)
# Sequence (P30969 whole entry): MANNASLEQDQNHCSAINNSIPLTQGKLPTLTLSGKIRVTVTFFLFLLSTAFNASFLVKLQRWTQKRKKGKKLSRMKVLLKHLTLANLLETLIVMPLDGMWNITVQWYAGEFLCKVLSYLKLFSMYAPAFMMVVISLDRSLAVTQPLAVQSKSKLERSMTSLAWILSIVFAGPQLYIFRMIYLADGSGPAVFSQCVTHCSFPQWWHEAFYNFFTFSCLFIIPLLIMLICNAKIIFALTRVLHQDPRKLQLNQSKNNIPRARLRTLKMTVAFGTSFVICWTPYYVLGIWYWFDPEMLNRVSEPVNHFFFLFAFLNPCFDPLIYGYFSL
# EXPERIMENT: Inhibition of binding of radiolabeled histrelin to Gonadotropin-releasing hormone receptor (GnRHr) in rat pituitary gland membranes
Item-by-item account of IC50

>  <SMILES>
CC(=O)Nc1ccc(C[C@H](NC(=O)[C@H](CO)NC(=O)[C@@H](Cc2cccnc2)NC(=O)[C@@H](Cc2ccc(Cl)cc2)NC(=O)[C@@H](Cc2ccc3ccccc3c2)NC(C)=O)C(=O)N[C@H](Cc2ccc(NC(C)=O)cc2)C(=O)N[C@H](C(=O)N[C@@H](CCCCNC(C)C)C(=O)N2CCC[C@H]2C(=O)N[C@H](C)C(N)=O)N(C)C(C)=O)cc1

>  <IC50>
1.7 nM

$$$$
>  <SMILES>
CC(=O)Nc1ccc(C[C@H](NC(=O)[C@H](CO)NC(=O)[C@@H](Cc2cccnc2)NC(=O)[C@@H](Cc2ccc(Cl)cc2)NC(=O)[C@@H](Cc2ccc3ccccc3c2)NC(C)=O)C(=O)N[C@H](Cc2ccc(NC(C)=O)cc2)C(=O)N[C@H](C(=O)N[C@@H](CCCCNC(C)C)C(=O)N2CCC[C@H]2C(=O)N[C@H](C)C(N)=O)N(C)C(=O)C(C)C)cc1

>  <IC50>
0.53 nM

$$$$
>  <SMILES>
CC(=O)Nc1ccc(C[C@H](NC(=O)[C@H](CO)NC(=O)[C@@H](Cc2cccnc2)NC(=O)[C@@H](Cc2ccc(Cl)cc2)NC(=O)[C@@H](Cc2ccc3ccccc3c2)NC(C)=O)C(=O)N[C@H](Cc2ccc(NC(C)=O)cc2)C(=O)N[C@@H](CC(C)C)C(=O)N[C@@H](CCCCNC(C)C)C(=O)N2CCC[C@H]2C(=O)N[C@H](C(N)=O)N(C)C=O)cc1

>  <IC50>
0.67 nM

$$$$
